experiment: Viability by FSC/SSC gate (flow cytometry) in TMD8 BTK-GFP/mCh cells; type: cell-based, human; conditions: human, TMD8 BTK-GFP/mCh cells, TMD8 BTK-GFP/mCh, 24 h; read-out: GI50 viability
measure-name: GI50 at 24 h (µM)
Numbers only, in µM.

For reference, reported GI50 at 24 h for Cc1nc(Nc2ncc(C(=O)Nc3c(C)cccc3Cl)s2)cc(N2CCC(OC3CCN(CCCCCCCC(=O)N4CCN(c5ccc6c(NCCN)nc(C7(c8ccc(Cl)cc8)CCCCC7)nc6c5)CC4)CC3)CC2)n1 [DDa-1] stands at 1.2

====

target: BTK (Homo sapiens); test: BTK-GFP degradation by flow cytometry in TMD8 BTK-GFP/mCh cells; type: cell-based; parameters: performed with full-length BTK and endogenous DCAF1; expressed in transfected cells; host or cells: TMD8 cells, lentiviral, blasticidin-selected (TMD8 BTK-GFP/mCh); settings: TMD8 BTK-GFP/mCh, 24 h; read-out: DC50 BTK-Degradation
Sequence (Q06187 2-659 limits assumed): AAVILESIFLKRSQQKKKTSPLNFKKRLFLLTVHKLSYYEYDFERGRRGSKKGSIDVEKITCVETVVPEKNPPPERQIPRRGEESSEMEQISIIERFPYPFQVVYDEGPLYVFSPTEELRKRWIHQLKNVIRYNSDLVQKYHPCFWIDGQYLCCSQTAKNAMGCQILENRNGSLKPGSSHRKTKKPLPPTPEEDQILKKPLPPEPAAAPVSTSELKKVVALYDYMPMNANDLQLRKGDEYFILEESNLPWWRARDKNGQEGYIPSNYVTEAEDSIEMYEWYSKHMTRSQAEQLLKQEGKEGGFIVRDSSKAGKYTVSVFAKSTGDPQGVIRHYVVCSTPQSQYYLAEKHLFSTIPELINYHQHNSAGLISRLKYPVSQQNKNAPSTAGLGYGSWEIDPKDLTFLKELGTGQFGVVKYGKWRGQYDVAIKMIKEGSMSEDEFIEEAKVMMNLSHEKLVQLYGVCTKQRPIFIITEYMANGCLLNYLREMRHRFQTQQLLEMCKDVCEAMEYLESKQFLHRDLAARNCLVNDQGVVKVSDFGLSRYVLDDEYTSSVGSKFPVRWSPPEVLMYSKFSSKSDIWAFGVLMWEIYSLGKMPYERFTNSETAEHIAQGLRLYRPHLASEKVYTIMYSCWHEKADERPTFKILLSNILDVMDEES
Assignment: determine reported DC50 for the given compounds.

Below, each entry is followed by its recorded DC50 result.
{"compound": "Cc1c(NC(=O)N2CC(O)(CC(C)(C)C)C2)cc(F)cc1-c1ncnc2[nH]c(-c3cnn(CC(=O)N4CCC5(CCNCC5)CC4)c3)cc12 [compound 19]", "observed": "> 25 µM"}
{"compound": "CCN(CC)Cc1ccc(-c2cc3c(-c4cc(F)cc(NC(=O)c5ccc(C(C)(C)O)cc5F)c4C)ncnc3[nH]2)cc1 [compound 17, reference compound]", "observed": "> 25 µM"}

We next turn to a different compound, shown below.
CC(=O)N1CCN(c2ccc3c(NCCN)nc(C4(c5ccc(Cl)cc5)CCCCC4)nc3c2)CC1 [compound 13] yielded DC50 of > 25 µM
